// data source = the supplement of paper PMC10567573

B1: TMEM106C (parent)
chain: SEQLVNFTGKAEMGGPFSYVYFFC

# Variants of: B1
# METHOD NOTES: protein stability index of a GFP-peptide fusion (GPS, HEK-293T) (PSI 1-6); higher = more stable;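 note: lentivirally expressed fusions sorted by FACS into six bins by GFP to DsRed ratio, PSI derived from sequencing read proportions per bin multiplied by bin number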
# EXPERIMENTAL CONDITIONS: c terminus: a fixed tail appended
Recorded protein stability index, one value per entry.
Answer with a bare number; do not write a unit.

IN: // protein stability index lookup, key: G14I
OUT: 3.83

IN: // protein stability index lookup, key: M13H
OUT: 2.64

IN: // protein stability index lookup, key: A11R
OUT: 2.14

IN: // protein stability index lookup, key: S18I
OUT: 3.11

IN: // protein stability index lookup, key: E2L
OUT: 1.91

IN: // protein stability index lookup, key: E12K
OUT: 4.11

IN: // protein stability index lookup, key: F22S
OUT: 2.12

IN: // protein stability index lookup, key: M13S
OUT: 2.16

IN: // protein stability index lookup, key: T8P
OUT: 2.54

IN: // protein stability index lookup, key: G9S
OUT: 2.97

IN: // protein stability index lookup, key: F23Q
OUT: 2.9
